The entries below are paired with their reported log10(IC50).
tested on: MDA-MB-231 cells (human breast cancer cells); assay: MDA-MB-231 cell proliferation inhibitory assay (CellTiter-Glo); type: cell-based; settings: Homo sapiens, MDA-MB-231, 72 h, read-out: Proliferation inhibition IC50
Heads up: the numbers are on a log10 scale; they represent IC50 in nM.

Please review the entries below; each comes with its answer.
Task: # return recorded log10(IC50) for entry CC[C@@]1(O)C(=O)OCc2c1cc1n(c2=O)Cc2c-1nc1cc(F)c(C)cc1c2[C@H](C)NC(=O)[C@H](O)C(F)(F)F
Result: 2.18

Task: Tell me its log10(IC50) given CC[C@@]1(O)C(=O)OCc2c1cc1n(c2=O)Cc2c-1nc1cc(F)c(OC)cc1c2[C@H](C)O [Example 30c] as the entry.
Result: 1.09

Task: Specify log10(IC50) for CC[C@@]1(O)C(=O)OCc2c1cc1n(c2=O)Cc2c-1nc1ccc(OC)cc1c2[C@H](C)O [Example 31c] and stop.
Result: 1.26

Task: For the compound [2H]C([2H])(O)C(=O)N[C@@H](C)c1c2c(nc3cc(F)c(C)cc13)-c1cc3c(c(=O)n1C2)COC(=O)[C@]3(O)CC , give its reported log10(IC50).
Result: 2.08

Task: Give the reported log10(IC50) for this compound. CC[C@@]1(O)C(=O)OCc2c1cc1n(c2=O)Cc2c-1nc1cc(F)c(C)cc1c2[C@@H](N)C(F)(F)F [Example 40a]
Result: 1.70

New cases:
Task: Give the value of log10(IC50) reported for the following: CC[C@@]1(O)C(=O)OCc2c1cc1n(c2=O)Cc2c-1nc1cc(F)c(C)cc1c2[C@H](C)N
Result: 1.20

Task: Determine from records and report log10(IC50) for CC[C@@]1(O)C(=O)OCc2c1cc1n(c2=O)Cc2c-1nc1cc(F)c(C)cc1c2[C@@H](C)NC(=O)CO [Example 13b]
Result: 2.11

* * *

tested on: MDA-MB-231 cells (human breast cancer cells); assay: MDA-MB-231 cell proliferation inhibitory assay (CellTiter-Glo); format: cell-based; conditions: Homo sapiens, MDA-MB-231, 72 h, read-out: Proliferation inhibition IC50
VALUE_KIND: IC50
Answers without a unit are incomplete; give the number and then its unit.

Task: GET IC50 where system = MDA-MB-231 cells (human breast cancer cells) and item = CC[C@@]1(O)C(=O)OCc2c1cc1n(c2=O)Cc2c-1nc1cc(F)c(C)cc1c2CO [Example 12b]
Result: 20.2 nM

Task: Enter recorded IC50 with MDA-MB-231 cells (human breast cancer cells) for CC[C@@]1(O)C(=O)OCc2c1cc1n(c2=O)Cc2c-1nc1ccc(O)cc1c2[C@H](C)O here.
Result: 500 nM

Task: Using MDA-MB-231 cells (human breast cancer cells) as the test system, report measured IC50 of CC[C@@]1(O)C(=O)OCc2c1cc1n(c2=O)Cc2c-1nc1cc(F)c(OC)cc1c2[C@@H](C)O [Example 30d] .
Result: 28.1 nM

Task: For MDA-MB-231 cells (human breast cancer cells), give the measured IC50 of the entry CC[C@@]1(O)C(=O)OCc2c1cc1n(c2=O)Cc2c-1nc1cc(F)c(C)cc1c2[C@H](C)N(C)C
Result: 60.8 nM
